Test system: UniProt:P28566
Sequence (P28566 whole entry): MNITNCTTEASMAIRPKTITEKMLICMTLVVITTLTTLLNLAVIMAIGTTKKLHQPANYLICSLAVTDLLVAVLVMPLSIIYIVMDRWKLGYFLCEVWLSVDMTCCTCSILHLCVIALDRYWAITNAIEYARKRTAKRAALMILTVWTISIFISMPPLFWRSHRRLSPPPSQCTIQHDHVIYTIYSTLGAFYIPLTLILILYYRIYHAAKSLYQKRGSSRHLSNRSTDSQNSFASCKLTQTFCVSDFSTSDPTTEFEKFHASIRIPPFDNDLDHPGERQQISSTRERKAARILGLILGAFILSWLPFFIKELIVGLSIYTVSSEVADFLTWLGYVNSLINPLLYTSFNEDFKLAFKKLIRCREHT

Structure notation | Ki
Cc1nc(-c2ccc(-c3ccc(C(=O)N4CCc5cc6c(cc54)C4(CCN(C)CC4)CO6)cc3)c(C)c2)no1 | > 10 µM

----------
Test system: UniProt:P30939
Sequence (P30939 whole entry): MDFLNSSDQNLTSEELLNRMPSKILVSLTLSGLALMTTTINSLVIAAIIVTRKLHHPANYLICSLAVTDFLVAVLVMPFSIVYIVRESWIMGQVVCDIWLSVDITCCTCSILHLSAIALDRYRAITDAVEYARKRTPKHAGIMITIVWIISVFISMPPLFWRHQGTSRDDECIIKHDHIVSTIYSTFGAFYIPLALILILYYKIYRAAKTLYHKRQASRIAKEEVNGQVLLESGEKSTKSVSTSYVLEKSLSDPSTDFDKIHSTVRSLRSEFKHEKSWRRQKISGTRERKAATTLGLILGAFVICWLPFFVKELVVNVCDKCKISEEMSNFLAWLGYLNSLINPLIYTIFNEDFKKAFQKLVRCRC
Observation type: Ki

Structure notation | Observation type | Test result
Cc1nc(-c2ccc(-c3ccc(C(=O)N4CCc5cc6c(cc54)C4(CCN(C)CC4)CO6)cc3)c(C)c2)no1 | Ki | > 10 µM

----------
Test system: 5-hydroxytryptamine receptor 2B (Homo sapiens, UniProt P41595)
Sequence (P41595 whole entry): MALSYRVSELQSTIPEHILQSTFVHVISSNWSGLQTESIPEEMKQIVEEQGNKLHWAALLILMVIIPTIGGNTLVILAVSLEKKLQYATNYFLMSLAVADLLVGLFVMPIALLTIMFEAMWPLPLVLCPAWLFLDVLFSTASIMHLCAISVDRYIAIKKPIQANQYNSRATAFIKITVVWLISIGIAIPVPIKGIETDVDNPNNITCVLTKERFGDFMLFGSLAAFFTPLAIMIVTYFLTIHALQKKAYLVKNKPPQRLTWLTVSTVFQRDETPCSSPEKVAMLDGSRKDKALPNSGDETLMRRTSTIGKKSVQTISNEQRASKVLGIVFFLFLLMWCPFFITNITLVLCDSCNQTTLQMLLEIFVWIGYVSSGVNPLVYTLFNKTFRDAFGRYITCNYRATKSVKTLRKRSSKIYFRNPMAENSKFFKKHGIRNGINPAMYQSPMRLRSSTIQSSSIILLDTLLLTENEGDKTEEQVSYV
pKi: −log10 of the molar value.

Structure notation | pKi
Cc1nc(-c2ccc(-c3ccc(C(=O)N4CCc5cc6c(cc54)C4(CCN(C)CC4)CO6)cc3)c(C)c2)no1 | 5.50

----------
Test system: 5-hydroxytryptamine receptor 1B (Homo sapiens, UniProt P28222)
Sequence (P28222 whole entry): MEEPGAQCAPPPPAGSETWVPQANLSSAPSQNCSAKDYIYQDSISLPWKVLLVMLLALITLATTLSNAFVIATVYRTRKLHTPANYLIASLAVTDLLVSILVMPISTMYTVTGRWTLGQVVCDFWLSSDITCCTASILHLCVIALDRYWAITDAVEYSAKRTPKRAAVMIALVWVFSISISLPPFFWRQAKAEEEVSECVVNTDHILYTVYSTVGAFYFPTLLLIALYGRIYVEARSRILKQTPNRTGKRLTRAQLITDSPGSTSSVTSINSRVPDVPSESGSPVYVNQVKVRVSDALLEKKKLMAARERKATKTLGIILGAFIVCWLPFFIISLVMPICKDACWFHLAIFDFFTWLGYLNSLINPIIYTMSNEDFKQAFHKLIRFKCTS

Structure notation | Test system | Units text | Ki
COc1ccc(NC(=O)c2ccc(-c3ccc(-c4noc(C)n4)cc3C)cc2)cc1N1CCN(C)CC1 | 5-hydroxytryptamine receptor 1B (Homo sapiens, UniProt P28222) | nM | 0.93

----------
Test system: 5-hydroxytryptamine receptor 6 (Homo sapiens, UniProt P50406)
Sequence (P50406 whole entry): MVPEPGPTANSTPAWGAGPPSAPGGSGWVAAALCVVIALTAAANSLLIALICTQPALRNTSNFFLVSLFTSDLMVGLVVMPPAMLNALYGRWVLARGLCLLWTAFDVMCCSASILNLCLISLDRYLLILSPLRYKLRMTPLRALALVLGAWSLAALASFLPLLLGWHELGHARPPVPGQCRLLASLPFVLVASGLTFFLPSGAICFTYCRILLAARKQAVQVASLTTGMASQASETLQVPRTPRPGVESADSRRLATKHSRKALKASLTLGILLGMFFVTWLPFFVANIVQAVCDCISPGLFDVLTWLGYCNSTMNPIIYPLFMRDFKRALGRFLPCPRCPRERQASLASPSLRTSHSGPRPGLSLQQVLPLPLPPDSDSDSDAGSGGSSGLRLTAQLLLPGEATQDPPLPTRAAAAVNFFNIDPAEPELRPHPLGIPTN
pKi: −log10 of the molar value.
Observation type: pKi

Structure notation | Observation type | Test result
Cc1nc(-c2ccc(-c3ccc(C(=O)N4CCc5cc6c(cc54)C4(CCN(C)CC4)CO6)cc3)c(C)c2)no1 | pKi | 5.67
